These entries and their values trace back to paper PMC10535219.

assay.protocol: Biodisposition of JV-DE1 eye drops in New Zealand rabbits (LC-MS/MS of plasma and ocular tissues)
Assay type: in vivo
settings: New Zealand, plasma, other: eye drop applied to the eye; rabbit; single eye drop 120 μg/eye OD; 3 h; read-out: Drug in plasma

| compound | concentration at 3 h |
| --- | --- |
| CC(C)Oc1ccc(Cc2ccc(NC3=NCCN3)cc2)cc1 [JV-DE1] | 0.3 ng/mL |

* * *

assay.protocol: Biodisposition of JV-DE1 and JV-MD2 delivered via NIODP (periorbital skin) in non-human primates
Assay type: in vivo, cynomolgus monkeys
settings: cynomolgus, cynomolgus monkey, plasma, topical; JV-MD2 21.5% w/w; monkey; NIODP periorbital skin OS; 7018 μg/eye; 6 h; pre-dose baseline 2; read-out: Drug in plasma

| compound | result.units | concentration at 6 h |
| --- | --- | --- |
| CC/C=C\C/C=C\C/C=C\C/C=C\C/C=C\C/C=C\CCC(=O)O [JV-MD2, cis-4,7,10,13,16,19-docosahexaenoic acid] | ng/mL | 2000 |
